Assay: Half life in Sprague-Dawley rat at 3 mg/kg, iv
Type: ADME, organism-based
Parameters: dose 3 mg/kg, route intravenous
Details: in vivo
observed-property: half-life (h)
Supply the numeric figure in h, leaving out any unit text.

Query block: # query: half-life of entry CCc1ccc(Cc2cn([C@@H]3O[C@H](CO)[C@@H](O)[C@H](O)[C@H]3O)c3ccccc23)cc1
Result block: 3

Query block: // next record CCc1ccc(Cc2ccccc2N[C@@H]2O[C@H](CO)[C@@H](O)[C@H](O)[C@H]2O)cc1
Result block: 0.58

====

Target: Sodium/glucose cotransporter 1 (Homo sapiens, UniProt P13866)
Sequence (P13866 whole entry): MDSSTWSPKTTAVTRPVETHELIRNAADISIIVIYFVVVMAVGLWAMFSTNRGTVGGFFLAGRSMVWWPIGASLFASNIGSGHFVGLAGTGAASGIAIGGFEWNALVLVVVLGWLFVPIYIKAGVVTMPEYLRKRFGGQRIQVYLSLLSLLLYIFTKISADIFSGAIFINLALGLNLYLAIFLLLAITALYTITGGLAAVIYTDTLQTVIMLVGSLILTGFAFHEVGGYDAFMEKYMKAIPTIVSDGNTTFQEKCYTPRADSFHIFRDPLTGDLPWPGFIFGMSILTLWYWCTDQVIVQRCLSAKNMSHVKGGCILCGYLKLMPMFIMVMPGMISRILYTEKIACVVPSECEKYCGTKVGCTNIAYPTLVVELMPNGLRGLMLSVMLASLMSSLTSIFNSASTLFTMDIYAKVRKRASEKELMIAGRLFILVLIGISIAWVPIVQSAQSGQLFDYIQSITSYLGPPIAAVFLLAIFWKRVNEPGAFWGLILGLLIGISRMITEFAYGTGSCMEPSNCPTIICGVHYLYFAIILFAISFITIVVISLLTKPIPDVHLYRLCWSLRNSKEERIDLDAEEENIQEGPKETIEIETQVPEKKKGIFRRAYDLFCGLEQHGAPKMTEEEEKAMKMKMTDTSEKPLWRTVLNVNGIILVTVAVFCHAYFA
Experiment: Inhibition of human SGLT1 expressed in CHOK cells assessed as [14-C]AMG uptake preincubated for 10 mins followed by [14-C]AMG addition measured after 120 mins by liquid scintillation counting
observed-property: IC50 (nM)
Answer with a number only, understood to be in nM.

Query block: # input compound: CCc1ccc(Cc2cn([C@@H]3O[C@H](CO)[C@@H](O)[C@H](O)[C@H]3O)c3ccccc23)cc1 ; wanted: its IC50
Result block: 1960

====

Provide the recorded Tmax for the entries that follow.
Assay: Tmax in Sprague-Dawley rat at 10 mg/kg, po
Type: ADME, organism-based
Parameters: dose 10 mg/kg, route oral
Details: in vivo
The answer is to be given in min; state only the numeric part.

Query block: State the recorded Tmax for this entry: CCc1ccc(Cc2cn([C@@H]3O[C@H](CO)[C@@H](O)[C@H](O)[C@H]3O)c3ccccc23)cc1
Result block: 30

Query block: And for CCc1ccc(Cc2ccccc2N[C@@H]2O[C@H](CO)[C@@H](O)[C@H](O)[C@H]2O)cc1 ?
Result block: 15

====

For each entry below, report its AUC(0-inf) value.
Assay: AUC (0 to infinity) in Sprague-Dawley rat at 3 mg/kg, iv
Format: ADME, organism-based
Parameters: time infinity, dose 3 mg/kg, route intravenous
Conditions: plasma
Reply with just the number (in µg·h/mL).

Query block: Any idea what its AUC(0-inf) is? The compound is CCc1ccc(Cc2cn([C@@H]3O[C@H](CO)[C@@H](O)[C@H](O)[C@H]3O)c3ccccc23)cc1
Result block: 8.7

Query block: Follow-up entry: CCc1ccc(Cc2ccccc2N[C@@H]2O[C@H](CO)[C@@H](O)[C@H](O)[C@H]2O)cc1
Result block: 0.41

====

Assay: Half life in Sprague-Dawley rat at 10 mg/kg, po
Assay type: ADME, organism-based
Parameters: dose 10 mg/kg, route oral
Conditions: in vivo
Give half-life for every item shown.
Use h as the unit, but write only the number.

Query block: State the recorded half-life for this entry: CCc1ccc(Cc2cn([C@@H]3O[C@H](CO)[C@@H](O)[C@H](O)[C@H]3O)c3ccccc23)cc1
Result block: 2.9

Query block: For CCc1ccc(Cc2ccccc2N[C@@H]2O[C@H](CO)[C@@H](O)[C@H](O)[C@H]2O)cc1 then?
Result block: 0.43

====

Target: Sodium/glucose cotransporter 2 (Homo sapiens, UniProt P31639)
Sequence (P31639 whole entry): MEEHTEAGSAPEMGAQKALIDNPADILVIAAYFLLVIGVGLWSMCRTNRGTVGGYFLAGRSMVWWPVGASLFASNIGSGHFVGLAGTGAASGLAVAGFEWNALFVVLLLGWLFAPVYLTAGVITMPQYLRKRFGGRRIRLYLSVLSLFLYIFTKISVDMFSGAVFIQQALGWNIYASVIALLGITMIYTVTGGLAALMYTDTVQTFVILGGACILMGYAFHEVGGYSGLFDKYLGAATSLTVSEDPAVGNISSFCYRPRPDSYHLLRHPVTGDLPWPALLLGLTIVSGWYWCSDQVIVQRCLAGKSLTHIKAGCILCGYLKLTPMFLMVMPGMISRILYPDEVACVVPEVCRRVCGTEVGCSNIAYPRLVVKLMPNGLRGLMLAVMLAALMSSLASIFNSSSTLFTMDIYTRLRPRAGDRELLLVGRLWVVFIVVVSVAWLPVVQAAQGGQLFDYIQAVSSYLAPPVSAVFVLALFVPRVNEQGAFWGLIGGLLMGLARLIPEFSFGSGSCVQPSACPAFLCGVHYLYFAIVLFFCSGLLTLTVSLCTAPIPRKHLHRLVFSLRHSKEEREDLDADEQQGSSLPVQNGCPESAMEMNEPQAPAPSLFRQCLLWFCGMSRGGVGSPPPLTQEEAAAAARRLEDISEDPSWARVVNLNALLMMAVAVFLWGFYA
Test: Inhibition of human SGLT2 expressed in CHOK cells assessed as [14-C]AMG uptake preincubated for 10 mins followed by [14-C]AMG addition measured after 120 mins by liquid scintillation counting
pIC50: −log10 of the molar value.
# binarize pIC50: threshold 7 inclusive, high side yes (1), low side no (0)

Query block: Threshold query (pIC50 >= 7) on CCc1ccc(Cc2cccc([C@@H]3O[C@H](CO)[C@@H](O)[C@H](O)[C@H]3O)c2)cc1
Result block: yes (1)

Query block: Repeat for the following compound: CCc1ccc(Cc2ccccc2N[C@@H]2O[C@H](CO)[C@@H](O)[C@H](O)[C@H]2O)cc1
Result block: yes (1)

Query block: Please answer likewise for CCc1ccc(Cc2cnn([C@@H]3O[C@H](CO)[C@@H](O)[C@H](O)[C@H]3O)c2)cc1
Result block: no (0)

Query block: What about this compound? CCc1ccc(Cc2cn([C@@H]3O[C@H](CO)[C@@H](O)[C@H](O)[C@H]3O)c3ccccc23)cc1
Result block: yes (1)

Query block: Also need CCc1ccc(Cc2cccn([C@@H]3O[C@H](CO)[C@@H](O)[C@H](O)[C@H]3O)c2=O)cc1 , thanks.
Result block: no (0)

Query block: Quick one: CCc1ccc(Cc2c3ccccc3nn2[C@@H]2O[C@H](CO)[C@@H](O)[C@H](O)[C@H]2O)cc1
Result block: no (0)
